Experiment: Plasma pharmacokinetics of RPM constituents after oral RPM extract
Settings: RPM extract 18 g/kg p.o., rat plasma, Mean ± SD, n = 6
Attribute measured: Cmax
Reply with the number, then its unit.

Recorded result, O=C(O)c1cc(O)c2c(c1)C(=O)c1cccc(O)c1C2=O , Cmax: 3.72 nM

----------
Test: Tissue distribution of RPM constituents after oral RPM extract
Conditions: male, Sprague-Dawley, rat, testis, po, 18 g/kg, AUC0-t in testis, rat tissue: testis; 18 g/kg RPM extract p.o.; tissues collected at 5, 15, 60 min
AUC(0-t): recorded values
Quick note: give the figure in µM·h, leave out the unit.

COc1cc(O[C@@H]2O[C@H](CO)[C@@H](O)[C@H](O)[C@H]2O)c2c(O)c(C(C)=O)c(C)cc2c1 [TG, torachrysone-8-O-glucoside]
0.0698
COc1cc(O[C@@H]2O[C@H](CO)[C@@H](O)[C@H](O)[C@H]2O)c2c(c1)C(=O)c1cc(C)cc(O)c1C2=O [PG, physcion-8-O-β-D-glucoside]
0.0806

The record that follows has no AUC(0-t) shown yet.
Value of measured AUC(0-t) for the entry OC[C@H]1O[C@@H](Oc2c(O)cc(O)cc2/C=C/c2ccc(O)cc2)[C@H](O)[C@@H](O)[C@@H]1O : 7.77
